test system: K4 kissing-loop RNA reporter; test: apparent KD of K4 kissing-loop reporter; higher = weaker reporter binding; details: Eterna round: R107; input ligand: theophylline 20 uM
test readout: apparent KD of K4 kissing-loop reporter (nM)
Hi! Could you send only the number? It should be in nM, unit omitted.

Inquiry: Data request, read-out apparent KD of K4 kissing-loop reporter, for GGGUGGCAGGCGGCCGCCACUCUGAGCACCCACUGAGUGAUGUUCGUGGCGUAAGACUGUUCGUAGAGGACCGGGUUUGUUGUUC [Same State Tryptophan B GF 23]
Reply text: 306

Inquiry: Bench note: what apparent KD of K4 kissing-loop reporter did UGACAUUGCUCAGAUACCAGUCAUGAGGAUCACCCAUGGGCCAAACGUACAAUAAUAAAUGACCCUUGGCAGCUGAGCAAUGUCU [TheoBX 14] show?
Reply text: 135

Inquiry: I am curious: what apparent KD of K4 kissing-loop reporter value has been reported for UUUAAAUAUAGUGAUGUUAUAUAACAAUGACGAGGACCGGUACGGCCGCCACUCGAGAGAGAUAAUGGUCAUACAAAUGUAUGUU [AstrosSSTryA#10] ?
Reply text: 789

====

Please go through the items and note down their apparent KD of MS2 coat protein.
test system: MS2 coat protein; test: apparent KD of MS2 coat protein; designed switch direction (-1 OFF switch, 1 ON switch): -1; higher = weaker reporter binding; settings: input ligand: microRNA oligo, concentration not stated
Reply with the number, then its unit.

Inquiry: Need apparent KD of MS2 coat protein, item CCGGGCCCGGGAGGAUAUACAUGAGGAUCACCCAUGUGGGCCCGGGCCCGCGGGCCCGGGCCCAUGUAGAAGGCCCGGGCCCGG [-64.8, -64.2 kcal, A 15%] (Eterna round: R96, puzzle: Exclusion NG 2)
Reply text: 36.4 nM

Inquiry: If you can, please state the reported apparent KD of MS2 coat protein value of UUGUUGUAUGUAGGAUAUGCAUAUUGUUAUUAUGCAGAAGGACAUGAGGAUCACCCAUGUAUAUUACUAUUAUGUACUAUAUAU [MOD of Hoglahoo's a different Title] (Eterna round: R96, puzzle: Exclusion NG 1) .
Reply text: 25.5 nM

====

tested on: K4 kissing-loop RNA reporter; test: apparent KD of K4 kissing-loop reporter; higher = weaker reporter binding; settings: Eterna round: R107; input ligand: FMN 200 uM;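 also: bound reporter read as fluorescence of individual clusters on recovered sequencing chips by microscopy, with normalized cluster intensities fitted with a binding model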
Assign apparent KD of K4 kissing-loop reporter to each entry below.
The reply should be a number in nM, with the unit left off.

Inquiry: Which measured apparent KD of K4 kissing-loop reporter value corresponds to AUUAUAAAGUCGGCCGCCACUGAGAGUAGUGAUGUUACUCUAUUCCUUUACAUAUUAUAGUUUAUCAGGACCGGGACAUCAGAUU [JR_ExcTryptoB_Sub018] ?
Reply text: 268

Inquiry: Which apparent KD of K4 kissing-loop reporter reading was recorded for the sequence AGUGAUAUAUGAGGAUAUGGGUUUGUUAAAGAGUUAGUUUUAGUGUUGUUUGGUUAGUGAUGUUAUUUAGAAGGCGUGAGUGAUG [foopmullin] ?
Reply text: 97.2

Inquiry: Look at this sequence and give its reported apparent KD of K4 kissing-loop reporter. GAAAGAAAGAAUGAUACCAGACACCCGAGUGAUGUUCGGAGCAGAGUGAUGUUCUAAUAAGUCCCUUGGCAGCAUAAAAGAAAAG [Same State Theophylline B GF 1]
Reply text: 240

Inquiry: Name the recorded apparent KD of K4 kissing-loop reporter for GCUCGGGAGUGAUGUUCCAAGUGGUGUUAACGAGGACCGGUACGGCCGCCACUCGAUACGGCCGGACCGUAGGAUAAACUGGAGC [Same State - Tryptophan A (Freestyle 12)] .
Reply text: 149

Inquiry: Can you share its apparent KD of K4 kissing-loop reporter? I mean this sequence: UGAUACCAGACUGAUACCAGCAAGUGAUGUUUGUUGAUCUAUGCAGUCAAAGACUGCUCUUGCCCUUGGCAGCAGUCUGGUAUCU [TheoBX 28 #SwitchBubble #StaticStem]
Reply text: 762

Inquiry: GET /values?readout=apparent KD of K4 kissing-loop reporter&item= AACGCUGCCUGAGGAUAUAGAAACGAGUGAUGUUCGUGGAACGAGACCAGUGAUGUUGGCCUAUUUCUAGAAGGCAGGCAACCGC [Exclusion FMN B GF 1]
Reply text: 155

Inquiry: Quick check: apparent KD of K4 kissing-loop reporter of CGUGCCCAGCCGGAUACCAGUGACCCGCUGGGAACCGCGGGCCCAGAGUGAUGUUCGGGACACCCUUGGCAGCCGCCUGGGCGGG [#2 Same State - Theophylline B Attempt #15 (HarryS)] ?
Reply text: 1020

Inquiry: Give its apparent KD of K4 kissing-loop reporter value. Item: AGUGAUGUUUUUUUUAAGAGUGAUGUUUUUCGAGGACCGGUACGGCCGCCACUCGAGUGAUGAGUGCGGUGUUGUGAUGUUUAGU [ewmullin]
Reply text: 606

Inquiry: Reported apparent KD of K4 kissing-loop reporter, sequence AUUUUGGUUUAGAGUGAUGUUCCUUGUAUUCGAGGACCGGUACGGCCGCCACUCGGGUAGAAAAGAAAAGAAAUGUUUGAUUUUU [BDazzled - #9 SS Tryptophan A] : ____
Reply text: 282

Inquiry: Reported apparent KD of K4 kissing-loop reporter for UGCGCUGUGUACUGAAAUGUCCUGCGGGAUACCAGAGUCUUUUUAUUCCCUUGGCAGCUUGAGUGAUGUUUGAUGCCGUUCUUGU [frrgmullin] : what is it?
Reply text: 786

Inquiry: Can you share its apparent KD of K4 kissing-loop reporter? I mean this sequence: UUAGCGACAAGUCAGAUUCUGACAAUUGAUACCAGAUAGAAUUCUAUCCCUUGGCAGCAGUGAUGUUGUUGCAAUAAGUCGCAUU [AK2 Exc Theophylline A]
Reply text: 322

Inquiry: Which value of apparent KD of K4 kissing-loop reporter has been reported for AGACUACCACACUGUCAAUAGACAGUGUACUAGGAUAUGCUGAUAAGCAGAAGGAGUGAUGUUCCAAGGUAGUCAAUAAAAUAAU [FmnAX 13 U28+A66] in the records?
Reply text: 393

Inquiry: Which apparent KD of K4 kissing-loop reporter reading was recorded for the sequence UCCCGAGUGAUGUUUGGCUGAUGGAGUGAUACCAGUCCCUAGACUGACCCUUGGCAGCACGACUUGUACCAGGCGGAUCACCCUG [theeternabot_exclusion_KL_Theo_A_5] ?
Reply text: 479

Inquiry: Requested field: apparent KD of K4 kissing-loop reporter. Item: GGUGCUGUCUGUGCCGCCCUCCUCGUUCCUCGAGGACCGGUACGGCCGCCACUCGAGUGAUGUUCGGGUAGCGAUCCCUGCUAGC [Bdazzled - #17 Exc. Tryptophan A]
Reply text: 221

Inquiry: Would you mind telling me what apparent KD of K4 kissing-loop reporter value was observed for CGAGAAAGAGCGACUGGCGAUCUGUCUGAAGGAGCGGGUGCUAGCCCAGGUAGGUCGCAGACCUUGACGCCAGUGAUGUUGGCGG [Ritiatso] ?
Reply text: 220

Inquiry: What does the record list as apparent KD of K4 kissing-loop reporter for UUUUAAAUGUCUGAUACCAGAGAAAAUUUAUGUAGUGAUGUUAUAUACAAAUUAAAUAAGCUCCCUUGGCAGCAGUAUUAAUUUU [AstrosExc-TheB#9] ?
Reply text: 583

Inquiry: Report apparent KD of K4 kissing-loop reporter for GGGUGGCAGGCGGCCGCCACUCUGAGCACCCACUGAGUGAUGUUCGUGGCGUAAGACUGUUCGUAGAGGACCGGGUUUGUUGUUC [Same State Tryptophan B GF 23] please.
Reply text: 203

Inquiry: Returns the measured apparent KD of K4 kissing-loop reporter for the input sequence. Input: GAUCCAUGACAAGGAUAUUCGCCAACGGUGCCGGAGUGAUGUUCUGCACAACAGACUACAAGUAAGGAAGAAGGUGUCAGUUACC [theeternabot_sameState_KL_FMN_B_29]
Reply text: 595

Inquiry: Looking for the measured apparent KD of K4 kissing-loop reporter of CUAUGGAAACAUAGUAAUCGGGAAACCGAUACCAGUAUGGAAACAUACCCUUGGCAGCGGAAUGAUUAAACGGAGUGAUGUUCCG [Theophylline A K4 17] , can you help?
Reply text: 354

Inquiry: Looking for the measured apparent KD of K4 kissing-loop reporter of AUCUUGUUUGGAGGAUAUUCUUUAUUCGACAUAACCUUCUAUAAGGUGCAGUGAUGUUGCAAUAUAGGAGAAGGUCGAGUGAGAU [Exclusion FMN B GF 17] , can you help?
Reply text: 239

Inquiry: // returns reported apparent KD of K4 kissing-loop reporter for input AAAGAAGUAUACUUCAAGAGGUAUGCUGAUACCAGAGUCAAUUGACUCCCUUGGCAGCGGAUCGAGUGAUGUUCGUAACCUCAAA [AK3 SS Theophylline A]
Reply text: 118

Inquiry: Give its apparent KD of K4 kissing-loop reporter value. Item: GGGUCUGUCGGAAGGAGCGCACUAUGGAGUGAUGUUCCAUGACCGCACAGCUUGCGGUCAGUGCAGGUAGGUCGCCGAUAGCUUU [Usquso]
Reply text: 277

Inquiry: Report apparent KD of K4 kissing-loop reporter for GUAUCGCUAGGAGGAUAUUUCAAAUAAUAAAUAAAUGGAUAUUCGGAGUGAUGUUCCGAUUUACGGAAAGAAGGCCUAGUGAUAC [FMN B 2] please.
Reply text: 135
